System Tested: Amine oxidase [flavin-containing] B (Homo sapiens, UniProt P27338)
Sequence (P27338 whole entry): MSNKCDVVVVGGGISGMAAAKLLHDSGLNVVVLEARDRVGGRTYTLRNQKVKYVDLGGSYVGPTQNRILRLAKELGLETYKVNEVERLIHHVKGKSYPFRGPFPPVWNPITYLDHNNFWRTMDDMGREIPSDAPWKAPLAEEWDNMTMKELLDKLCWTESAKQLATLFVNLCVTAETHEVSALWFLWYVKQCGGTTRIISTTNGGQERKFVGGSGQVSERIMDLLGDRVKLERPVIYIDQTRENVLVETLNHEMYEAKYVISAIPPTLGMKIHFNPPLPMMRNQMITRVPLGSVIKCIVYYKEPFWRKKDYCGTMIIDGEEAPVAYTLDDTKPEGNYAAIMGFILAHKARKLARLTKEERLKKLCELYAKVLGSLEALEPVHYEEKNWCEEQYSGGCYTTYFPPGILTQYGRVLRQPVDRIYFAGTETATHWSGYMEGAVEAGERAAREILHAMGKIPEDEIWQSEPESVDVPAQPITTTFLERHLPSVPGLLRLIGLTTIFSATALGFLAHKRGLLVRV
Experiment: Inhibition of recombinant human MAOB expressed in baculovirus infected BTI insect cell microsomes at 10 uM using MMTP as substrate preincubated for 5 mins followed by substrate addition by spectrophotometric analysis
Classes are defined on inhibition at 10 µM with ranges lower band: < 40%; central band: ≥ 40% and < 90%; upper band: ≥ 90%

Query Smiles: COc1cccc(/C=C/C(=O)c2ccc(SC)cc2)c1OC
Class: lower band
//
Query Smiles: COc1cccc(/C=C/C(=O)c2ccccc2C(F)(F)F)c1OC
Class: lower band
//
Query Smiles: CS(=O)(=O)c1ccc(C(=O)/C=C/c2cccc3c2OCO3)cc1
Class: upper band
//
Query Smiles: O=C(/C=C/c1cccc2c1OCO2)c1cccc(C(F)(F)F)c1
Class: upper band
//
Query Smiles: O=C(/C=C/c1cccc2c1OCO2)c1ccccc1C(F)(F)F
Class: lower band
//
Query Smiles: COc1cccc(/C=C/C(=O)c2cccc(C(F)(F)F)c2)c1OC
Class: central band

Let us examine a further case.
Ask | Exercise: read the entry CSc1ccc(C(=O)/C=C/c2cccc3c2OCO3)cc1 and state which class it falls under.
Reply | central band

Origin of the recorded values: ChEMBL document CHEMBL3779824
